melting point reference
quantity: melting point

>>> testresult("O=C(O)c1ccc2[nH]c(C(=O)O)cc2c1")
"314 to 315 °C"
>>> testresult("Cc1noc(C)c1CON1C(=O)c2ccccc2C1=O")
"144 to 146 °C"
>>> testresult("CCCc1ccccc1OCCCOc1cccc(OC(=CC(=O)OC)C(=O)OC)c1CC")
"63.5 to 66 °C"
>>> testresult("N#Cc1cccnc1N1CCN(CCCCc2ccc(-c3csc(N)n3)cc2)CC1")
"155 to 162 °C"
>>> testresult("CCCCc1nc(SCC)c(C(=O)O)n1Cc1ccc(C(=O)O)cc1")
"168 °C"
>>> testresult("Cn1cncc1C(O)(c1ccc(Cl)cc1)c1ccc2c(c1)c(-c1cccc(Cl)c1)cc1cnnn12 (stereo not given)")
"222 °C"
>>> testresult("C#CCN1Cc2cccc3cccc(c23)C1=O")
"139 to 140 °C"
>>> testresult("CCCn1c(=O)nc(NNC(C)=O)c2[nH]c(C3CCCC3)nc21")
"> 270 °C"
>>> testresult("CC(=O)OCCN1C(=O)C(=Cc2cc(C(C)(C)C)c(O)c(C(C)(C)C)c2)SC1=S")
"140 to 143 °C"
>>> testresult("Cc1c(Sc2ccc(Cl)cc2)nn(-c2ccc(Cl)cc2)c(=O)c1C#N")
"177 to 179 °C"

---

Listed below: melting point values for each entry.
quantity: melting point

>>> testresult("Cc1cccc(OC2CCOC2=O)c1[N+](=O)[O-] (stereo not given)")
"82 to 84 °C"
>>> testresult("CC(C)(CCn1cnnc1)NCC(O)c1ccc(OCc2ccccc2)c(CO)c1 (stereo not given)")
"139 to 141 °C"
>>> testresult("CC(C)n1nc(-c2nc(-n3cccc3)c(N)nc2-c2ccccc2)ccc1=O")
"132 to 136 °C"
>>> testresult("Cn1nc(Cl)c(Cl)cc1=O")
"97 °C"
>>> testresult("NC(CNCC(N)=NO)=NO")
"135 to 136 °C"
>>> testresult("COc1ccc(-c2ccc3c(c2)CC[C@H]2N(C)C(=O)CC[C@]32C)cc1OC")
"108 to 112 °C"
>>> testresult("CC(C)(C)C(=O)Nc1ccc2oc3c(c2c1)CCCCCC3")
"189 to 190 °C"
>>> testresult("Nc1ccc(C2=CCOCC2)c(F)c1")
"86 to 88 °C"
>>> testresult("COc1cc(Nc2c(C#N)cnc3cc(-c4ccc(CNCCS(=O)(=O)c5ccccc5)o4)ccc23)c(Cl)cc1Cl")
"123 to 128 °C"
>>> testresult("Cn1c(=O)c(=O)[nH]c2c3ccccc3ccc21")
"333 °C"
>>> testresult("Cc1nc2cc(C(O)(c3ccc(Cl)cc3)c3cncn3C)cc3c(-c4cccc(Cl)c4)cc(=O)n1c23 (stereo not given)")
"170 °C"
>>> testresult("OC1CSC(Oc2ccc(-c3cncnc3)nc2Cl)C(O)C1O (stereo not given)")
"100 °C"
>>> testresult("COC(=O)Nc1ccccc1-c1c(C(=O)OC)c2cc(OC)c(OC)cc2c(=O)n1C")
"165 to 170 °C"
>>> testresult("Cc1ccccc1-c1nsc(S(=O)(=O)N=CN2CCOCC2)n1")
"151 to 153 °C"
>>> testresult("CCc1nnc2c(Nc3ccc(Cl)cc3OC)nc3ccccc3n12")
"245 to 248 °C"
>>> testresult("C/C=C/c1c(N)nc(-c2ccc(Cl)c(OC)c2F)nc1C(=O)OC")
"133 to 135 °C"
>>> testresult("NC(=O)c1ccc(C=CC(=O)N2CCc3c([nH]c4ccccc34)C2c2ccc3c(c2)OCO3)cc1 (stereo not given)")
"183 °C"
>>> testresult("O=C(NOC1CCCCO1)c1ccc(C(=O)Nc2cccc(Nc3nc(-c4cccnc4)cs3)c2)cc1 (stereo not given)")
"224 °C"
>>> testresult("CC(=O)c1ccc2c(c1)C(NC(=NC#N)Nc1ccccc1)C(O)C(C)(C)O2 (stereo not given)")
"182 to 184 °C"
>>> testresult("CCOC(=O)C1=CC(NC(=NC(=O)OC(C)(C)C)NC(=O)OC(C)(C)C)C(NC(C)=O)C(C(O)C2COC(C)(C)O2)O1 (stereo not given)")
"118 to 120 °C"
>>> testresult("COc1cc(OC)c([N+](=O)[O-])nc1N")
"195 °C"
>>> testresult("CCCCCCCCCCCCCc1cc(C(=O)O)c[nH]1")
"82 to 84 °C"
>>> testresult("CC(=O)N(C)N(C(=O)OC(C)(C)C)c1ccc(CO)cc1")
"122 to 123 °C"
>>> testresult("N#Cc1cc(C(F)(F)F)[nH]c1-c1ccc(Cl)c(Cl)c1")
"230 to 232 °C"
>>> testresult("ON=CN1CCCC1C1=Nc2ccc(Cl)cc2C(c2ccccc2F)=NC1 (stereo not given)")
"175 to 178 °C"
>>> testresult("CCCS(=O)(=O)Oc1ccc(CO)c(Oc2ncc(C(F)(F)F)cc2Cl)c1")
"68.5 to 69.5 °C"
>>> testresult("CCC(=O)NC1COC2=CC3=C(OCCC3)C(=O)C21 (stereo not given)")
"184 °C"
>>> testresult("CC(C)(C)c1ccc(Cn2ccc3cc(-c4ccc(C(C)(C)C)cc4)ccc32)cc1")
"167 to 168 °C"
>>> testresult("COC(=O)c1csc(NC(=O)c2cc(OC)c(OC)cc2OC)n1")
"251 to 252 °C"
>>> testresult("CCC(C)S(=O)(=O)c1cc(C(F)(F)F)ccc1C(=O)c1cnoc1C1CC1 (stereo not given)")
"89 to 91 °C"
>>> testresult("OCc1cnn(C(c2ccccc2)(c2ccccc2)c2ccccc2)c1")
"181 to 184 °C"
>>> testresult("O=C1C(=O)c2ccccc2C2=C1SCC(CN1CCC3(CC1)OCCO3)O2 (stereo not given)")
"202 to 204 °C"
>>> testresult("O=C(O)Cc1c(-c2ccccc2)nn(-c2ccccc2Cl)c1-c1ccccc1")
"191 to 193 °C"
>>> testresult("CC(C)(C)OC(=O)C[C@H](NC(=O)CNC(=O)c1csc(NC(=O)NCc2ccccc2)n1)C(=O)NCc1cccnc1")
"185 °C"
>>> testresult("CC(=O)Nc1nc(NCCSC(C)=O)n[nH]1")
"127 to 130 °C"
>>> testresult("Cc1ccc2c(OS(=O)(=O)C(F)(F)F)cc(=O)oc2c1")
"95 to 96 °C"
>>> testresult("CNC(=O)c1cc(-c2ccc(OC)c(F)c2)nn(CC2CC2)c1=O")
"140 to 141 °C"
>>> testresult("Cn1cc(Br)cc(Nc2cc3c(cn2)CCN(C(=O)OC(C)(C)C)C3)c1=O")
"126 to 128 °C"
>>> testresult("CC(C)(C)OC(=O)N[C@@H](C(=O)O)C1(C)CCCCC1")
"127 to 130 °C"
>>> testresult("COc1ccc(COc2cccc3c2CN(C2CCC(=O)NC2=O)C3=O)cc1OC (stereo not given)")
"205 to 207 °C"

---

The following compounds are listed with their measured melting point values.
quantity: melting point

>>> testresult("Cc1cc(C)c2c(c1)C(Nc1ncnc(N)n1)CCC2 (stereo not given)")
"178 to 180 °C"
>>> testresult("O=C(NC(c1ccccc1)c1cc2ccncc2[nH]1)c1ccncc1 (stereo not given)")
"182 to 192 °C"
>>> testresult("CN(Cc1ccco1)Cn1c(Cl)c(C#N)c(-c2cccc(Cl)c2F)c1-c1ccccc1")
"63 to 64 °C"
>>> testresult("Cc1nc2c(O)c(CC[C@@H](O)c3ccccc3)c(C(=O)N3CCC3)cc2n1C")
"265 to 266 °C"
>>> testresult("CN(c1cccc2c(F)c(C3=NCC(CC(N)=O)S3)[nH]c12)S(=O)(=O)c1cccs1 (stereo not given)")
"204 to 205 °C"

---

melting point: recorded values
quantity: melting point

>>> testresult("O=C(O)Cc1c(C(=O)O)c2cc(Oc3cc(Cl)cc(Cl)c3)ccc2n1-c1ccc(OC(F)(F)F)cc1")
"219 to 223 °C"
>>> testresult("O=C(O)CCNc1c2ccc(Cl)cc2nc2c(=O)[nH][nH]c(=O)c12")
"356 to 359 °C"
>>> testresult("CCCCCCCCCCOc1ccccc1-c1nc(N)c(N=O)c(=O)[nH]1")
"144 to 146 °C"
>>> testresult("COC(=O)c1cc([N+](=O)[O-])ccc1Nc1ccc(CCc2ccc(Cl)c(Cl)c2)cc1")
"107 to 108 °C"
>>> testresult("CC1Oc2ccccc2C(O)C1n1ccnc1 (centres undefined)")
"160 to 175 °C"
>>> testresult("O=C(CBr)Nc1ccc(Cl)cc1C(=O)c1c(F)cccc1F")
"146 to 148 °C"
>>> testresult("O=C(O)c1cnn2c(C(F)(F)F)cc(-c3ccc(C(F)(F)F)cc3)nc12")
"248 °C"
>>> testresult("CSCc1noc(-c2cc(C(C)(C)C)c(O)c(C(C)(C)C)c2)n1")
"97 to 98 °C"
>>> testresult("COc1c(C(O)c2ncc([N+](=O)[O-])n2C)cc(O)cc1C(C)(C)C (centres undefined)")
"125 to 128 °C"
